Sourced from patent US20260028354A1

studySystem: ER in T47D cells (Homo sapiens (Human))
measurementDescription: In-cell Western (ICW) ER degradation assay in T47D cells
Type: cell-based
assayContext: maximal ER degradation, 16 hrs treatment, read-out: T47D Dmax
measurementType: Dmax

Some entries whose results are on file:
{"compound": "COc1cc(N2CCC3(CC2)CC(CN2CCC(c4ccc(N[C@@H]5CCC(=O)NC5=O)cc4)CC2)C3)c(F)cc1[C@@H]1c2ccc(O)cc2CC[C@@H]1c1ccccc1 (single isomer, unassigned)", "testResult": "> 75%"}
{"compound": "COc1cc(N2CCC(CN3CCC(c4ccc(N[C@@H]5CCC(=O)NC5=O)cc4)CC3)CC2)ccc1[C@@H]1c2ccc(O)cc2CC[C@@H]1c1ccccc1 (single isomer, unassigned)", "testResult": "25 to 50%"}
{"compound": "O=C1CCC(NC(=O)c2ccc(N3CCN(CC4CCN(c5ccc([C@@H]6c7ccc(O)cc7CC[C@@H]6c6ccccc6)cc5)CC4)CC3)cn2)C(=O)N1 (stereo partly drawn)", "testResult": "50 to 75%"}
{"compound": "O=C1CC[C@H](NC(=O)c2ccc3c(n2)OC[C@H]2CN(CC4CCN(c5ccc([C@@H]6c7ccc(O)cc7CC[C@@H]6c6ccccc6)cc5)CC4)CCN32)C(=O)N1 (single isomer, unassigned)", "testResult": "50 to 75%"}
{"compound": "COc1cc(N2CCC3(CC2)CC(CN2CCN4c5ccc6c(c5OC[C@H]4C2)CN([C@H]2CCC(=O)NC2=O)C6=O)C3)ccc1[C@@H]1c2ccc(O)cc2CC[C@@H]1c1ccccc1 (single isomer, unassigned)", "testResult": "> 75%"}

Ask: Recorded Dmax of COc1cc(N2CCC(CN3CCN4c5cc6c(cc5OC[C@H]4C3)C(=O)N([C@@H]3CCC(=O)NC3=O)C6)CC2)ccc1[C@H]1c2ccc(O)cc2CC[C@H]1c1ccccc1 (stereo in doubt) , please.
Reply: > 75%

Ask: Also check `O=C1CC[C@H](N2Cc3cc4c(cc3C2=O)OC[C@@H]2CN(C[C@H]3COC5(C3)CN(c3ccc([C@@H]6c7ccc(O)cc7CC[C@@H]6c6ccccc6)cc3)C5)CCN42)C(=O)N1`
Reply: > 75%

Ask: Then O=C1CC[C@H](N2Cc3c(ccc4c3OC[C@H]3CN(C[C@H]5COC6(C5)CN(c5ccc([C@@H]7c8ccc(O)cc8CC[C@@H]7c7ccccc7)cc5)C6)CCN43)C2=O)C(=O)N1 (single isomer, unassigned) ?
Reply: > 75%

====

studySystem: CRBN/DDB1 (Homo sapiens (Human), UniProt Q96SW2)
Sequence (Q96SW2 whole entry, species assumed): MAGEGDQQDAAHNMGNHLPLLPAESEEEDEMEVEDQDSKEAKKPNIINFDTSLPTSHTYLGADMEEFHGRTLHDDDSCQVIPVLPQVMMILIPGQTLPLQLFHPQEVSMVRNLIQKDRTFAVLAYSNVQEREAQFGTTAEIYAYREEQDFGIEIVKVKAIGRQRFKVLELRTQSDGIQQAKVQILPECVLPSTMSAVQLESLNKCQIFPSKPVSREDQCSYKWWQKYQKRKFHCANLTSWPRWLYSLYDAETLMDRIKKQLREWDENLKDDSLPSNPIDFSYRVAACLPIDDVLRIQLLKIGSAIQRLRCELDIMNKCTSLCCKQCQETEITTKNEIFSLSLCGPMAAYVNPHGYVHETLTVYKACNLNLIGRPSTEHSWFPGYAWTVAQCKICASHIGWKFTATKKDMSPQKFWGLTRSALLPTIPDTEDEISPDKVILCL
Sequence (Q16531 whole entry partner, species assumed): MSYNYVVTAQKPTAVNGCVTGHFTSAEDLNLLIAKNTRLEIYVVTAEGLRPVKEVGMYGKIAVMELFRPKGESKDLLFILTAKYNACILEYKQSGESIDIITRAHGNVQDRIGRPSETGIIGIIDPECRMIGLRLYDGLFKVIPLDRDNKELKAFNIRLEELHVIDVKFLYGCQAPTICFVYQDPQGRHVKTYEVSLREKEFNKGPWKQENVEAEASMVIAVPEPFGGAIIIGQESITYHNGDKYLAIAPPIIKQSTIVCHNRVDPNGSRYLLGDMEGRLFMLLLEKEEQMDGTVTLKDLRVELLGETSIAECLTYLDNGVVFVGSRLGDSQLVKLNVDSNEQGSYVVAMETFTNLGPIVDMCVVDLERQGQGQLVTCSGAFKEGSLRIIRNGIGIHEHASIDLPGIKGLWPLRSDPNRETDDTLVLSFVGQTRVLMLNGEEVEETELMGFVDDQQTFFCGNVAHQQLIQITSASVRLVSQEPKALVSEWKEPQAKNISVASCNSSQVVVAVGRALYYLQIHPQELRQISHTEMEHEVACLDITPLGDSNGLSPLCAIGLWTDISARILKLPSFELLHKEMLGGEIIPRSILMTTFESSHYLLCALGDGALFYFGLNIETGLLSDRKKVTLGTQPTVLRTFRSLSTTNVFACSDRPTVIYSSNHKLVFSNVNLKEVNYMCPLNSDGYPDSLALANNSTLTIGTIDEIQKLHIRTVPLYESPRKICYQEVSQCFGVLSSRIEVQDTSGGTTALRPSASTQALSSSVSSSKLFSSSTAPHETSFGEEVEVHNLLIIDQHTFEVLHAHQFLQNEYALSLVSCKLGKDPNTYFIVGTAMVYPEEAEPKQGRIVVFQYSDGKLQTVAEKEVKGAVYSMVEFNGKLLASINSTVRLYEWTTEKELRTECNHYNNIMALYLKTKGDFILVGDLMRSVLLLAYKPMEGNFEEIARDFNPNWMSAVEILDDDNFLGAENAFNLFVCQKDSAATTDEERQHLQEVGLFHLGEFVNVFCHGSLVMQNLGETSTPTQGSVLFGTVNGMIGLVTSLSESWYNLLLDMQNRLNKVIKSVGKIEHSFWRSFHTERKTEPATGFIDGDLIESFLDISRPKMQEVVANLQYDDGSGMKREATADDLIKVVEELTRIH
assayContext: His tagged CRBN+DDB1, Cy5-labeled Thalidomide probe, one hour; read-out: CRBN HTRF IC50
measurementType: IC50

Ask: GET /values?readout=IC50&item= O=C1CCC(NC(=O)c2ccc(C3CCN(CC4CCN(c5ccc([C@@H]6c7ccc(O)cc7CC[C@@H]6c6ccccc6)cc5)CC4)CC3)cn2)C(=O)N1 (some centres unmarked) [Compound A3]
Reply: > 5000 nM

Ask: Subsequent entry: COc1cc(N2CC3(CCC(CN4CCN5c6cc7c(cc6OC[C@@H]5C4)C(=O)N([C@H]4CCC(=O)NC4=O)C7)CC3)C2)c(F)cc1[C@@H]1c2ccc(O)cc2CC[C@@H]1c1ccccc1 (single isomer, unassigned) [Compound A164]
Reply: 500 to 5000 nM

Ask: Then what about the compound COc1cc(N2CCC3(CC2)C[C@@H](CN2CCN4c5cc6c(cc5OC[C@@H]4C2)C(=O)N([C@H]2CCC(=O)NC2=O)C6)CO3)ccc1[C@@H]1c2ccc(O)cc2CC[C@@H]1c1ccccc1 (single isomer, unassigned) [Compound A136] ?
Reply: 500 to 5000 nM

Ask: Also, COc1cc(N2CCC(CN3CC[C@@]4(c5ccc(N[C@@H]6CCC(=O)NC6=O)cc5)C(C3)C4(F)F)CC2)ccc1[C@@H]1c2ccc(O)cc2CC[C@@H]1c1ccccc1 (mixture of isomers) [Compound A88] please.
Reply: > 5000 nM

Ask: Next: COc1cc(N2CCC3(CC2)CC(CN2CCC(c4ccc(NC5CCC(=O)NC5=O)cc4F)CC2)C3)ccc1[C@@H]1c2ccc(O)cc2CC[C@@H]1c1ccccc1 (stereo in doubt) [Compound A106]
Reply: 50 to 500 nM

====

studySystem: ER in MCF-7 cells (Homo sapiens (Human), UniProt P03372)
measurementDescription: In-cell Western (ICW) ER degradation assay in MCF-7 cells
Assay type: cell-based
assayContext: MCF7, MCF-7, maximal ER degradation, 16 hrs treatment; read-out: MCF7 Dmax
measurementType: Dmax

Ask: // query Dmax value for entry O=C1CC[C@H](N2Cc3cc4c(cc3C2=O)OC[C@H]2CN(C[C@@H]3COC5(CCN(c6ccc([C@@H]7c8ccc(O)cc8CC[C@@H]7c7ccccc7)cc6)CC5)C3)CCN42)C(=O)N1 (single isomer, unassigned)
Reply: 50 to 75%

Ask: Then this compound: O=C1CC[C@@H](Nc2ccc(C3CCN(C[C@@H]4COC5(CCN(c6ccc([C@@H]7c8ccc(O)cc8CC[C@@H]7c7ccccc7)cc6)CC5)C4)CC3)cc2)C(=O)N1 (single isomer, unassigned)
Reply: 25 to 50%

====

studySystem: CRBN/DDB1 (Homo sapiens (Human))
assayContext: His tagged CRBN+DDB1, Cy5-labeled Thalidomide probe, one hour; read-out: CRBN HTRF IC50
Items are presented alongside their recorded IC50.

{"molecule": "O=C1CC[C@H](Nc2ccc(C3CCN(C[C@@H]4COC5(CCN(c6ccc([C@H]7c8ccc(O)cc8CC[C@H]7c7ccccc7)cc6)CC5)C4)CC3)c(F)c2)C(=O)N1 (single isomer, unassigned)", "studySystem": "CRBN/DDB1 (Homo sapiens (Human))", "testResult": "50 to 500 nM"}

Switching to the query record.
Ask: Using the record for COc1cc(N2CCC3(CC2)CC(CN2CCN4c5cc6c(cc5OC[C@@H]4C2)C(=O)N([C@H]2CCC(=O)NC2=O)C6)C3)ccc1[C@H]1c2ccc(O)cc2CC[C@H]1c1ccccc1 (single isomer, unassigned) , report its IC50.
Reply: 50 to 500 nM

====

studySystem: ER (Homo sapiens (Human), UniProt P03372)
measurementDescription: In-cell western blot analysis of ER for "B" compounds
Type: cell-based
assayContext: 16 hours, read-out: ICW DC50
Experimental: R^T 2h, gentle shaking. […]
measurementType: DC50

Please review the following examples before continuing.
{"compound": "O=C1CCC(N2Cc3c(ccc4c3OC[C@H]3CN(C[C@H]5CCN(c6ccc([C@@H]7c8ccc(O)cc8CC[C@@H]7c7ccccc7)cc6)C5)CCN43)C2=O)C(=O)N1 (stereo partly drawn) [Compound B216]", "studySystem": "ER (Homo sapiens (Human), UniProt P03372)", "DC50": "10 to 100 nM"}
{"compound": "O=C1CCC(N2Cc3cc4c(cc3C2=O)OC[C@@H]2CN(CC3CCC5(CN(c6ccc([C@@H]7c8ccc(O)cc8CC[C@@H]7c7ccccc7)cc6)C5)OC3)CCN42)C(=O)N1 (stereo partly drawn) [Compound B334]", "studySystem": "ER (Homo sapiens (Human), UniProt P03372)", "DC50": "10 to 100 nM"}

Ask: Look up DC50 for this compound: O=C1CCC(N2Cc3c(ccc4c3OCC43CCN(CC4CCC5(CCN(c6ccc([C@@H]7c8ccc(O)cc8CC[C@@H]7c7ccccc7)cc6)CC5)C4)CC3)C2=O)C(=O)N1 (stereo partly drawn) [Compound B364]
Reply: > 100 nM

====

studySystem: ER in T47D cells (Homo sapiens (Human), UniProt P03372)
Sequence (P03372 whole entry): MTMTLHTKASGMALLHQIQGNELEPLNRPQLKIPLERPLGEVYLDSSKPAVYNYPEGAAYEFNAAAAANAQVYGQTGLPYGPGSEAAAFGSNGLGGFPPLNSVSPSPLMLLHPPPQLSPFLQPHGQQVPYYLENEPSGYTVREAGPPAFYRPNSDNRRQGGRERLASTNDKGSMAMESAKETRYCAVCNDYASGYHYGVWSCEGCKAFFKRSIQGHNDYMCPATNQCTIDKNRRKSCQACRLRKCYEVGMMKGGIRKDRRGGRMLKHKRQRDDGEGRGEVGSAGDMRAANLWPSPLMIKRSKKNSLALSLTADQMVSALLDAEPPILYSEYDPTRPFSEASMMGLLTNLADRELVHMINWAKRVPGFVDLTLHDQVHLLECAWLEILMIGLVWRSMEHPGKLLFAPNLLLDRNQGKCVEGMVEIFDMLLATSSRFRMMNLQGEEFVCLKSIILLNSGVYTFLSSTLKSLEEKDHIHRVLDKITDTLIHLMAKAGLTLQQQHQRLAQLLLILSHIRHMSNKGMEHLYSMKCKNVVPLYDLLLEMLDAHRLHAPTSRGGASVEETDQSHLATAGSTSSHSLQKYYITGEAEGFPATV
measurementDescription: In-cell Western (ICW) ER degradation assay in T47D cells
Format: cell-based
assayContext: ER degradation, 16 hrs treatment
measurementType: DC50

Example results:
{"compound": "COc1cc(N2CCC3(CC2)C[C@H](CN2CCC4(CC2)COc2c4ccc4c2CN([C@H]2CCC(=O)NC2=O)C4=O)CO3)c(F)cc1[C@@H]1c2ccc(O)cc2CC[C@@H]1c1ccccc1", "testResult": "< 1 nM"}
{"compound": "O=C1CCC(Nc2ccc(C34CCN(C[C@H]5COC6(CCN(c7ccc([C@@H]8c9ccc(O)cc9CC[C@@H]8c8ccccc8)cc7)CC6)C5)CC3C4(F)F)cc2)C(=O)N1 (some centres unmarked)", "testResult": "> 100 nM"}
{"compound": "COc1cc(N2CCC3(CC2)CC(CN2CCN4c5ccc(C(=O)N[C@H]6CCC(=O)NC6=O)nc5OC[C@@H]4C2)C3)c(F)cc1[C@@H]1c2ccc(O)cc2CC[C@@H]1c1ccccc1", "testResult": "< 1 nM"}
{"compound": "O=C1CC[C@@H](Nc2ccc(C3CCN(CC4CCC5(CC4)CN(c4ccc([C@@H]6c7ccc(O)cc7CC[C@@H]6c6ccccc6)cc4)C5)CC3)cc2)C(=O)N1 (single isomer, unassigned)", "testResult": "< 1 nM"}

Ask: Test system ER in T47D cells (Homo sapiens (Human), UniProt P03372); read-out DC50; what value for `COc1cc(N2CCC(CN3CCC4(CC3)COc3c4ccc4c3CN([C@H]3CCC(=O)NC3=O)C4=O)CC2)ccc1[C@H]1c2ccc(O)cc2CC[C@H]1c1ccccc1` ?
Reply: < 1 nM
